Hey, just so you know, these numbers are from patent US10577362B2.

Test system: HCT-116 (colorectal carcinoma) cell line
Experiment: CellTiter-Glo luminescent cell viability assay, HCT-116
Format: cell-based, human
Details: HCT-116 cell line; 72 h incubation; CellTiter-Glo; read-out: EC50, growth inhibition of HCT-116
Where a name gives a salt, the structure may show the parent alone.
observation type: EC50

Item: OC[C@@H]1CCCN1c1cc(NCc2ccc(Cl)cc2)nc2ccccc12 [Compound 2308, hydrochloride] | EC50: 5 to 10 µM

###

Test system: 786-O (renal adenocarcinoma) cell line
Experiment: CellTiter-Glo luminescent cell viability assay, 786-O
Type: cell-based, human
Settings: Homo sapiens, 786-0; 786-O cell line; 72 h incubation; CellTiter-Glo; read-out: EC50, growth inhibition of 786-O
pEC50: −log10 of the molar value. Where a name gives a salt, the structure may show the parent alone.
observation type: pEC50

Record excerpt, results attached:
compound | pEC50
N#Cc1c(NCc2ccc(Cl)cc2)nc2ccccc2c1N1CCC(NC2CCOCC2)CC1 [Compound 3180CN] | 5.00 to 5.30
O[C@H]1CCN(c2cc(NCc3ccc(Cl)cc3)nc3ccccc23)C1 [Compound 3060, hydrochloride] | 5.00 to 5.30
Cc1ccc(CNc2nc3ccccc3c(N3CCC(NC(C)(C)C)CC3)c2C#N)cc1 [Compound 3288CN] | 5.30 to 6.30
Clc1ccc(CNc2cc(N3CC(N4CCCC4)C3)c3ccccc3n2)cc1 [Compound 116, hydrochloride] | 5.30 to 6.30
CN(Cc1ccc(Cl)cc1)c1cc(N2CCC(NC(C)(C)C)CC2)c2ccccc2n1 [Compound 212, Hydrochloride Salt] | 5.00 to 5.30

Item: CN(C)C1CCN(c2c(C#N)c(NCc3ccc(Cl)cc3)nc3ccccc23)CC1 [Compound 3184CN] | pEC50: 5.30 to 6.30

Item: Cc1cc(C)nc(Nc2ccc(Nc3nc4ccccc4c(N4CCC(NC(C)(C)C)CC4)c3C#N)cc2)n1 [Compound 3276CN] | pEC50: 5.30 to 6.30
